TESTED ON: Acetylcholinesterase (Electrophorus electricus)
ASSAY NAME: Inhibition of electric eel AChE using acetylthiocholine iodide as substrate pretreated for 15 mins followed by substrate addition and measured after 60 mins by Ellman's method
Active and inactive are the calls of the source. No cut-off for these calls is given here.
Respond only with the outcome that fits, drawn from t = active, f = inactive

COC(=O)/C=C/c1cc(OC)c2c(c1)[C@H](C(=O)OC)[C@@H](c1ccc(O)c(OC)c1)O2 (racemic) :: f
COc1cc([C@H]2Oc3c(OC)cc(CCCO)cc3[C@@H]2CO)ccc1O [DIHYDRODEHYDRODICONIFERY ALCOHOL] :: f
COc1cc(/C=C/C(=O)OCCCc2cc(OC)c3c(c2)C(COC(=O)/C=C/c2ccc(O)c(OC)c2)C(c2ccc(O)c(OC)c2)O3)ccc1O (stereo not given) :: t

INPUT: Dear colleague, could you share the recorded outcome for COc1cc([C@@H]2Oc3c(OC)cc(/C=C/C(=O)NCCc4ccc(O)cc4)cc3[C@H]2C(=O)NCCc2ccc(O)cc2)ccc1O [GROSSAMIDE] when you have a moment?
OUTPUT: t

INPUT: Next record, please: "COC(=O)CCc1cc(OC)c2c(c1)[C@H](C(=O)OC)[C@@H](c1ccc(O)c(OC)c1)O2"
OUTPUT: f

====

System: PC-12
ASSAY NAME: Neuroprotective activity against TBHP-induced cellular damage in rat PC12 cells assessed as cell viability at 10 uM pretreated for 1 hr followed by TBHP addition and measured after 3 hrs by CCK8 assay (reference value: 27.3%)
Type: functional
ASSAY CONTEXT: read-out: Activity
Consider the following compounds; for each one, report its viability at 10 µM.
Numbers only, in %.

Example entries begin here.
Oc1ccc(/C=C/c2cc(O)cc(O)c2)cc1 [RESVERATROL] :: 57.5
Oc1ccc([C@H]2Oc3ccc(/C=C/c4cc(O)cc(O)c4)cc3[C@@H]2c2cc(O)cc(O)c2)cc1 :: 60.2
COc1cc(/C=C/c2ccc3c(c2)[C@H](c2cc(OC)cc(OC)c2)[C@@H](c2ccc(O)cc2)O3)cc(OC)c1 :: 75.5
O=c1c(O)c(-c2ccc(O)c(O)c2)oc2cc(O)cc(O)c12 [QUERCETIN] :: 65.1

INPUT: Suppose we examine the compound COc1cc(/C=C/C(=O)OCCCc2cc(OC)c3c(c2)C(COC(=O)/C=C/c2ccc(O)c(OC)c2)C(c2ccc(O)c(OC)c2)O3)ccc1O (stereo not given) ; what viability at 10 µM value has been reported?
OUTPUT: 72.7

====

TESTED ON: Acetylcholinesterase (Electrophorus electricus, UniProt O42275)
Sequence (O42275 whole entry): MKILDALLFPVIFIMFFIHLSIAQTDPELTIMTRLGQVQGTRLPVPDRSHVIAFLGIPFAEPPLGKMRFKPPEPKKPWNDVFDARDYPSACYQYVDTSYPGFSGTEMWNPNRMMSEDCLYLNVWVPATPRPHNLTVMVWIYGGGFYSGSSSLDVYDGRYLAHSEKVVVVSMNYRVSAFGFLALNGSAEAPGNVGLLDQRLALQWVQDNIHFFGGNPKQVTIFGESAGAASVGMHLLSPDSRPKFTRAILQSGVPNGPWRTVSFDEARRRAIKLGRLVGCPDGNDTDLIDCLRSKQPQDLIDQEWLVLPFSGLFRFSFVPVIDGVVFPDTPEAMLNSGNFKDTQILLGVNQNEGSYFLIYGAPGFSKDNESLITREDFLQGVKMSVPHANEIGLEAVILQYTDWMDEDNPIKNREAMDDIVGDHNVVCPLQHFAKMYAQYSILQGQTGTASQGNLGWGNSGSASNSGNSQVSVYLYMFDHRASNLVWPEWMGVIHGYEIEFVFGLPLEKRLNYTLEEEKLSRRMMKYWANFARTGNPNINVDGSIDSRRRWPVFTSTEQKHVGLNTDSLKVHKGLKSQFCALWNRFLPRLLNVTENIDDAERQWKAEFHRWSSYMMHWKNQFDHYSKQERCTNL
ASSAY NAME: Inhibition of electric eel AChE using acetylthiocholine iodide as substrate pretreated for 15 mins followed by substrate addition and measured after 60 mins by Ellman's method
Please respond with reported pIC50 for every item in the list.
Answers are plain numbers, as −log10 of the molar value.

Consider the worked cases shown below.
COc1cc([C@@H]2Oc3c(OC)cc(/C=C/C(=O)NCCc4ccc(O)cc4)cc3[C@H]2C(=O)NCCc2ccc(O)cc2)ccc1O [GROSSAMIDE] :: 4.41
COc1cc(/C=C/C(=O)OCCCc2cc(OC)c3c(c2)C(COC(=O)/C=C/c2ccc(O)c(OC)c2)C(c2ccc(O)c(OC)c2)O3)ccc1O (centres undefined) :: 4.53
COc1cc(/C=C/c2ccc3c(c2)[C@H](c2cc(OC)cc(OC)c2)[C@@H](c2ccc(O)cc2)O3)cc(OC)c1 :: 4.93

INPUT: Return reported pIC50; argument: "Oc1ccc([C@H]2Oc3ccc(/C=C/c4cc(O)cc(O)c4)cc3[C@@H]2c2cc(O)cc(O)c2)cc1"
OUTPUT: 5.37

Sourced from ChEMBL document CHEMBL4346751
